Values compiled from PubChem BioAssay (NCI).

# System: MDA-MB-468 breast
# test-summary: NCI-60 one-dose screen, 48 h
# assay-setup: 10 µM unless noted
About 83,000 compounds went through this panel and 20% of them were active in at least one assay; those are over-represented in the sample as a whole. Calls of active or inactive are those of the source. The calls were made as follows: active = growth percent below 10; inactive = the rest.
Labels: active, inactive

INSERT INTO assay_data (compound_structure, assigned_label) VALUES
  ('Cc1cn(-c2cc(NC(=O)c3cncc(C#Cc4cnc(N)c5ncccc45)c3)cc(C(F)(F)F)c2)cn1', 'inactive'),
  ('C=C(C)[C@@H]1CC[C@]2(C(=O)N3CCN(C)CC3)CC[C@]3(C)[C@H](CC[C@@H]4[C@@]5(C)C/C(=C/c6ccncc6)[C@H](O)C(C)(C)[C@@H]5CC[C@]43C)[C@@H]12', 'active'),
  ('COc1ccc(/C=C/C(=O)/C=C(/C=C/c2ccc(OC)c(OC)c2OC)OB(F)F)c(OC)c1OC', 'inactive'),
  ('CSc1cc(SC)ncn1', 'inactive'),
  ('COc1ccc(NC(=S)Nc2ccccn2)cc1', 'inactive'),
  ('COC(=O)/C=C1\SC(=Nc2ccc(C(F)(F)F)cc2)N(CCc2c[nH]c3ccccc23)C1=O', 'active'),
  ('N#C/C(=C\c1c(-c2ccccc2)[nH]c2ccccc12)S(=O)(=O)c1ccccc1', 'inactive'),
  ('COc1cc(NC(=O)CCSc2nc3ccccc3c(=O)n2Cc2ccccc2)cc(OC)c1OC', 'inactive'),
  ('C#Cc1ccc(-n2c(/C=C/c3ccc4ccccc4c3)nc3ncccc3c2=O)cc1', 'active');
